target: L-lactate dehydrogenase (Plasmodium falciparum (isolate CDC / Honduras)); assay: PfLDH activity inhibition – cell lysate, 3D7 strain, counter-screen for P. falciparum growth inhibition project (AID 2304);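 also: 0% = vehicle and 100% = reference inhibitor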; details: P. falciparum 3D7 crude extract, LDH APAD/NBT absorbance; at 2 µM; stronger effect = higher value
Parameter: inhibition. Scope: all listed entries.
All answers are understood in %, so give the number only.

Cc1cc(N2CCCN(C)CC2)nc(Nc2ccc(Br)cc2)n1
7
OC(CN1c2ccccc2Sc2ccccc21)CN(C1CCCCC1)C1CCCCC1 (stereo not given)
-5
CC(C)N1CCN(C(CN2CCN(CCCOc3cccc(-c4ccccc4)c3)CC2)c2ccc(F)cc2)CC1 (stereo not given)
-2
CC(CCc1ccccc1)NCC(O)c1ccc2c3c(cccc13)C(=O)N2C (stereo not given)
-2
c1ccc(Oc2ccc(Nc3nc(NCCc4cnc[nH]4)nc(NC4CCCC4)n3)cc2)cc1
6

Qu. Which measured inhibition value corresponds to Nc1c(Cl)cc(C(O)CNCCCCCOCCc2ccccc2)cc1C(F)(F)F (stereo not given) ?
Ans. 5

Qu. Query (molecule): O=C(NC1CCN(Cc2ccc(Cl)cc2)CC1)c1cn(-c2ccccc2)nc1-c1cccnc1 ; field requested: inhibition
Ans. -2

Qu. Item Cc1cccn2c(=O)c3cc(C(=O)NCCN4CCOCC4)c(=N)n(CCc4ccccc4)c3nc12 has what recorded inhibition?
Ans. 1

Qu. I'd like to know its inhibition. The molecule in question is OC(CNc1ccnc(Nc2cccc(Cl)c2)n1)c1ccc(C(F)(F)F)cc1 (stereo not given)
Ans. 5

Qu. Look up inhibition: O=C(c1ccc(-c2ccc(-c3nc4ccc(F)cc4[nH]3)cc2)cc1)N1CCCCC1CN1CCC(O)C1 (stereo not given)
Ans. -1

* * *

assay: antimalarial activity against Dd2 strain (AID 2302);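 also: 0% = DMSO untreated growth and 100% = chloroquine plus artemisinin killed control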; settings: P. falciparum Dd2 in RBCs, LDH growth readout, 72 h; at 2 µM; stronger effect = higher value
PROPERTY MEASURED: growth inhibition (%)
Form entry: value (%) — number only.

Solved entries:
Nc1ccc2nc(C=Cc3ccc(Cl)cc3)[nH]c2c1
83
COc1ccc2nccc([C@@H](O)CN3CCC(NCc4ccc5c(n4)NCCC5)CC3)c2c1
39
NC(N)=Nc1nc(-c2cccc(NC(=O)C(F)(F)F)c2)cs1
24
CC(C)Oc1cc2c(cc1NS(=O)(=O)c1ccc(-c3cccs3)cc1)CCN(C)CC2
9
COc1ccc2nccc(NN=Cc3ccccc3[N+](=O)[O-])c2c1
100

Qu. Reported growth inhibition for CCc1sc(N2CCN(C)CC2)nc1C(=O)Nc1ccc(F)cc1C(F)(F)F : what is it?
Ans. 98

Qu. State the recorded growth inhibition for this entry: CC1CN(c2ccc(NC(=O)c3ccc(F)cc3)cc2)CCN1Cc1cccc(F)c1 (stereo not given)
Ans. 76

Qu. Please report the recorded growth inhibition for Cc1cc(N[C@@H](CC(C)C)C(=O)NCCc2ccccc2)nc(NCc2ccccc2C)n1 .
Ans. 74

Qu. Value lookup for growth inhibition; key = Oc1cccc(Nc2nc(NCc3ccccc3)c3ccccc3n2)c1
Ans. 99

Qu. If you can, please state the reported growth inhibition value of Cc1cc(NCC2CCN(CC3CCCCC3)C2)nc(Nc2ccc(Cl)cc2)n1 (stereo not given) .
Ans. 74

* * *

assay: antimalarial activity against Dd2 strain (AID 2302);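 also: 0% = DMSO untreated growth and 100% = chloroquine plus artemisinin killed control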; conditions: P. falciparum Dd2 in RBCs, LDH growth readout, 72 h; at 2 µM; stronger effect = higher value
Class (by growth inhibition) -- class 1: < 70%; class 2: ≥ 70% and < 90%; class 3: ≥ 90%

COC(=O)c1cccc(CNCc2ccc(-c3cccc(-c4nc5c(C)cccc5[nH]4)c3)cc2)c1
class 2
O=C(/C=C/c1ccc(Cl)c(Cl)c1)NCCCCCN1CCCN(C(=O)Nc2ccc(F)c(F)c2)CC1
class 1
Cc1cccc(OC(C)C(=O)Nc2cc(C(F)(F)F)ccc2N2CCOCC2)c1 (centres undefined)
class 3

Qu. Band for O=C(COc1ccc(F)cc1)NC1CCN(c2ccnc3cc(Cl)ccc23)C1 (centres undefined) ?
Ans. class 3

Qu. Field: class (growth inhibition) — entry: Cc1ccc(C(=O)Nc2ccc(Cl)c(N3CCN(CCc4ccccc4)CC3)c2)cc1
Ans. class 1

* * *

test: human hepatoma cell viability loss – ATP luminescence, cytotoxicity control for P. falciparum antimalarial project, primary screen (AID 2303); conditions: HepG2 viability, 24-48 h, at 10 µM;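 also: 0% = DMSO wells and 100% = digitonin-killed cells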
The source made the active and inactive calls.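 Rule for the calls: active = inhibition above 50%; inactive = the rest.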
I would appreciate it if you answered using one of these outcomes: active, inactive

Sample answers from the record:
COc1cc(-c2nc(-c3ccccc3)c(-c3ccccc3)[nH]2)ccc1OCCN(C)C
inactive
COc1cc(/C=C/C(=O)NC2CCC(N3CCC(c4ccccc4C)CC3)CC2)cc(OC)c1 (centres undefined)
active
O=C(Cn1c(CCc2cccc(F)c2F)cc(=O)c2ccccc21)N(CCN1CCCC1)Cc1ccc(-c2ccc(C(F)(F)F)cc2)cc1
active
O=C1CC(C(=O)O)CC(=O)N1
inactive
O=C(Nc1ccc(N2CCCN(Cc3cccc(F)c3)CC2)cc1)c1ccc(F)cc1
inactive

Moving on to another molecule below.
Qu. What was the test verdict on CCOC(=O)c1ccc(NC(=O)N(Cc2ccc(-c3ccc(CN4CCNCC4)cc3)cc2)C2CCN(Cc3ccccc3)CC2)cc1 ?
Ans. inactive

* * *

This listing pairs compounds with measured growth inhibition.
assay: inhibition of 3D7 malaria parasite growth – strain 3D7 (AID 2306);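 also: 0% = DMSO wells and 100% = chloroquine plus artemisinin control wells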; settings: P. falciparum 3D7 erythrocytic growth, LDH absorbance, 72 h; at 2 µM; stronger effect = higher value
Calls of active or inactive are those of the source. The rule behind the calls is not given here.

Some compounds with known growth inhibition results, for comparison:
Nc1nc(N)c2c(n1)CCC(c1ccccc1)C2 (stereo unspecified)
93% (active)
CCCNC(=O)Nc1ccc(N(C)c2ccnc(NC3CC3)n2)cc1
100% (active)
CCOc1cc(C(=O)NC2CC(C)(C)NC(C)(C)C2)ccc1-c1cc2cc(Cl)c(Cl)cc2[nH]1
101% (active)
CCOc1ccc2nc(C)cc(NN=Cc3ccc(Cl)cc3)c2c1
100% (active)
Cc1[nH]c(C)c(-c2ccc(-c3ccccc3Cl)nc2)c(=O)c1Cl
98% (active)

Qu. Data request, read-out growth inhibition, for CC(C)[C@H](NCC(=O)c1ccccc1)C(=O)O
Ans. 99% (active)

Qu. Form field: reported growth inhibition of COc1ccc(COc2cc(NCCCN)nc3ccccc23)cc1
Ans. 101% (active)

Qu. Given the entry N#Cc1ccc(NC(=NC2CCCc3ccccc32)Nc2ccc(-c3ccccc3)cc2)c(O)c1 (stereo unspecified) , report its measured growth inhibition.
Ans. 99% (active)

* * *

molecular target: L-lactate dehydrogenase (Plasmodium falciparum (isolate CDC / Honduras)); experiment: PfLDH activity inhibition – cell lysate, 3D7 strain, counter-screen for P. falciparum growth inhibition project (AID 2304);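 also: 0% = vehicle and 100% = reference inhibitor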; conditions: P. falciparum 3D7 crude extract, LDH APAD/NBT absorbance; at 2 µM; stronger effect = higher value
Recorded inhibition for the following compounds
Answer with a number only, understood to be in %.

CCN(CC)CCNc1ccnc2[nH]c3ccc(C)cc3c12
-3

Qu. Recorded inhibition for c1ccc(CCNCc2ccc(-c3cccc(CNc4ccc5ncccc5c4)c3)cc2)cc1 , please?
Ans. 3

Qu. Could you share which inhibition value was measured for Cc1ccc(NC(=O)c2ccc(CN3CCCN(Cc4cccc(O)c4)CC3)cc2)cc1F ?
Ans. -2

Qu. Endpoint output: inhibition of O=C(Cc1cnc[nH]1)Nc1cccc(-c2ccc(-c3nc4ccc(F)cc4[nH]3)cc2)c1 . Value?
Ans. -7

Qu. Given the entry COc1ccccc1CCNc1nc(C)cc(NCCC(=O)Nc2ccccc2)n1 , report its measured inhibition.
Ans. 0

* * *

assay: human hepatoma cell viability loss – ATP luminescence, cytotoxicity control for P. falciparum antimalarial project, primary screen (AID 2303); conditions: HepG2 viability, 24-48 h, at 10 µM;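 also: 0% = DMSO wells and 100% = digitonin-killed cells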
The source made the active and inactive calls.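 How the source made its calls: active means inhibition above 50%; inactive means the rest.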
Hello, when you answer, please use one of the following outcomes: active, inactive

O=C(/C=C/c1ccc(Cl)c(Cl)c1)N1CCC(CCN2CCC(c3c[nH]c4ccccc34)CC2)CC1
active

Qu. What did this assay record as the result for Cc1ccc(C(NC(=O)Cc2ccccc2)c2ccc3cccnc3c2O)cc1 (centres undefined) ?
Ans. inactive

Qu. Identify the outcome logged in this assay for the compound shown: CCCCOC(=O)NCCCC[C@H](NC(=O)OC(C)(C)C)C(=O)N[C@H](C(=O)OC(c1ccccc1)c1ccccc1)[C@H]1O[C@@H](n2ccc(=O)[nH]c2=O)[C@@H]2OC(C)(C)O[C@@H]21
Ans. inactive

Qu. Entry Cc1cc(NC2CCCC2)nc(Nc2ccccc2)n1 : call = ?
Ans. inactive

* * *

Parameter growth inhibition: see the listing below.
assay: inhibition of 3D7 malaria parasite growth – strain 3D7 (AID 2306);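 also: 0% = DMSO wells and 100% = chloroquine plus artemisinin control wells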; details: P. falciparum 3D7 erythrocytic growth, LDH absorbance, 72 h; at 2 µM; stronger effect = higher value
All answers are understood in %, so give the number only.

Sample answers from the record:
O=C(Nc1ccc(N2CCN(Cc3c[nH]c4cc(F)ccc34)CC2)cc1)c1ccccc1-c1ccc(C(F)(F)F)cc1
85
COc1ccc(Nc2nc(NN=Cc3ccc(-c4ccc([N+](=O)[O-])cc4)o3)nc(Nc3ccccc3)n2)cc1
100
c1cncc(Oc2ccc(Nc3ccnc4cc(-c5cccc(CN6CCOCC6)c5)ccc34)cc2)c1
101

Continue with the next compound.
Qu. Reported growth inhibition for O=C(Nc1ccc2c(c1)CNCC2)c1ccc(-c2ccc(Cl)cc2)cc1 : what is it?
Ans. 96
